Data provenance is patent US20220259593A1.

Overview of recorded Mean relative activity for various molecules
Tested on: K562 CRISPRi cells
Assay: Constant region variant library pooled growth screen, K562
Assay type: cell-based, human
Conditions: sgRNA constant region variants; activity relative to the unmodified constant region cr995
Could you keep your reply to the number by itself?

- molecule: "cr544 (nucleic acid, listed as DNA, chemistry not fully specified) guide: GTTTAAGAGCTAAGCTGGAAACAGCATAGCAACTTTAAATAAGGCTAGTCCGTTATCAACTCGAAAGAGTGGCACCGAGTCGGTGCT"
  Mean relative activity: 0.1605
- molecule: "cr853 (nucleic acid, listed as DNA, chemistry not fully specified) guide: GTTTAAGAGCTAAGCTGGAAACAGCATAGCAATTTTAAATAAGGCGAGTCCGTTATCAACTTGAAAAAGTGGCACCGAGTCGGTGCT"
  Mean relative activity: 0.2121
- molecule: "cr374 (nucleic acid, listed as DNA, chemistry not fully specified) guide: GTTTAAGAGCTAAGCTGGAAACAGCATAGCAAGTTTAAATAAGGATAGTCCGTTATCAACTTGAAAAAGTGGCACCGAGTCGGTGCT"
  Mean relative activity: 0.2686
- molecule: "cr452 (nucleic acid, listed as DNA, chemistry not fully specified) guide: GTTTAAGAGCTAAGCTGGAAACAGCATAGCAAATTTAAATAAGGCTAGTCCGTTATAAACTTGAAAAAGTGGCACCGAGTCGGTGCT"
  Mean relative activity: 0.1813
- molecule: "cr662 (nucleic acid, listed as DNA, chemistry not fully specified) guide: GTTTAAGAGCTAAGCTGGAAACAGCATAGCAAGTATAAATAAGGCTAGTCCGTTATCAACTTGAAAAAGTGGCACCGAGTCGGTGCT"
  Mean relative activity: 0.2491
- molecule: "cr154 (nucleic acid, listed as DNA, chemistry not fully specified) guide: GTTTAAGAGCTAAGCTGGAAACAGCATCGCAAGTTTAAATAAGGCTAGTCCATTATCAACTTGAAAAAGTGGCACCGAGTCGGTGCT"
  Mean relative activity: 0.2827
- molecule: "cr276 (nucleic acid, listed as DNA, chemistry not fully specified) guide: GTTTAAGAGCTAAGCTGGAAACAGCATAGCAAGTTTAAATAAGGATATTCCGTTATCAGCTTGAAAAAGCGGCACCCAGTGGGTGCT"
  Mean relative activity: 0.2143

We next turn to a different molecule, shown below.
Asked: State the recorded Mean relative activity for this entry: cr897 (nucleic acid, listed as DNA, chemistry not fully specified) guide: GTTTAAGAGCTAAGCTGGAAACAGCATAGCAAGTTTATATAAGGCTAGTCCGTTATCAACTTGAAAAAGTGGCACCGAGTCGGTGCT
Given back: 0.3233
